Below, each of the variants is paired with its reported yeast fitness value.
B1: tRNA (parent)
chain: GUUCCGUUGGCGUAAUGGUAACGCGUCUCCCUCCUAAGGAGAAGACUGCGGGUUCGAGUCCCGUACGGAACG

variants of: B1; test: yeast fitness relative to wild type (ratio to wild type); higher = fitter; tRNA-Arg(CCU), competitive growth, 37 C, YPD
This sample holds only a part of the variants without activity.

The examples below pair each entry with its known result.
variant spec	result
C22U C31U A45U C55U A70U	≤ 0.5
U19A A36C G51C U59A	≤ 0.5
U7C G9A U13C A21U G56A	≤ 0.5
U7A C11A G18A C31U C34U U47C C49A G56A A57U	≤ 0.5
G6A C30U U35C	≤ 0.5
U7A A15G C34G	≤ 0.5
U26C C33G A45G	≤ 0.5
A14C U16C A21G C29A C34U A69U	≤ 0.5

QUERY: If you can, please state the reported yeast fitness value of A21U A42G U59A C60A A69U .
RESULT: ≤ 0.5

QUERY: Entry under review: G25A C27G C33G G39A C46U C61U A69U . Reported yeast fitness?
RESULT: ≤ 0.5

QUERY: For G10C A21C C29A C30G A40C , what is its reported yeast fitness?
RESULT: ≤ 0.5
